read-out: Transforming growth factor beta 1 (TGFb1), TGFB1 (gene 7040); test: BSK_BE3C_TGFb1: BioMAP Diversity Plus: BE3C Assay for Transforming growth factor beta 1 (TGFb1) Biomarker Activity (AID 2283036); settings: primary human bronchial epithelial cells; actives raise or lower the signal
Active and inactive are the calls of the source. The calls were made as follows: active = hit-call score of the fitted dose curve at least 0.9, where 1 is the maximum; inactive = score below 0.9.
# output must be one of active, inactive

Example entries begin here.
CC1=CC(C)C(C=O)C(C)C1 (centres undefined) (tested in a mixture with another compound)
inactive
CCCCCCCC1CCCC1=O (centres undefined)
active
Nc1ccc(N)c([N+](=O)[O-])c1
inactive
CC(=O)CCC=C(C)CCC=C(C)C
inactive
CC(=O)OCC=C(C)CCC=C(C)CCC=C(C)C
inactive
c1ccc(Sc2ccccc2)cc1
active

Prompt: Which result was noted for this compound in the test: CCCCCCCCCCCCS
Response: inactive

Prompt: Which result was noted for this compound in the test: CCCCCCCCCC(=O)OCC
Response: active

Prompt: Which result was noted for this compound in the test: COC(=O)c1ccc(C(=O)OC)cc1
Response: inactive

Prompt: Which result was noted for this compound in the test: CC(C)(C)c1cccc(O)c1
Response: inactive

Prompt: Which result was noted for this compound in the test: O=S1(=O)CC(Cl)(Cl)C(Cl)(Cl)C1
Response: active

* * *

assay: ATG_NRF2_ARE_CIS: Attagene CIS-FACTORIAL HepG2 Assay for human Nuclear Factor Erythroid 2 Related Factor 2 (NFR2) response to Antioxidant Response Elements (ARE) (AID 2282992); settings: HepG2 Attagene ARE/NRF2 reporter, transcription factor activity; actives raise or lower the signal
Activity calls are given as the source filed them. How the source made its calls: active means hit-call score of the fitted dose curve at least 0.9, where 1 is the maximum; inactive means score below 0.9.
# output must be one of active, inactive

Example entries begin here.
C=CCOC(=O)/C=C\C(=O)OCC=C
active
OCCCO
inactive
O=S(=O)(O)c1cc(S(=O)(=O)O)c2c(N=Nc3ccccc3)c(O)ccc2c1
inactive
O=C(O)c1cccc(Cl)n1
inactive
CCCCCCCCOC(C)=O
inactive

Prompt: Which result was noted for this molecule in the test: CCCC1CCOC(C)S1 (configuration not stated)
Response: inactive

Prompt: Which result was noted for this molecule in the test: C=C(C)C(=O)OCCC[Si](OC)(OC)OC
Response: inactive

Prompt: Which result was noted for this molecule in the test: O=C1OCc2ccccc21
Response: inactive

Prompt: Which result was noted for this molecule in the test: CCCCN(CCO)CCO
Response: inactive

Prompt: Which result was noted for this molecule in the test: C=CC(O)CCCCC (configuration not stated)
Response: active

* * *

Read-out: CD38, CD38 (gene 952)
Test: BSK_SAg_CD38: BioMAP Diversity Plus: SAg Assay for CD38 Biomarker Activity (AID 2283087)
Conditions: primary human HUVEC with PBMC; actives raise or lower the signal
Description: BSK_SAg is a cell-based, multiplexed-readout assay that uses umbilical vein endothelium and peripheral blood mononuclear cells, a human vascular primary cell co-culture, with measurements taken at 24 hours after chemical dosing in a 96-well plate.BSK_SAg_CD38 is one of 10 assay component(s) measured or calculated from the BSK_SAg assay. […] This assay endpoint, BSK_SAg_CD38, was analyzed with bidirectional fitting relative to DMSO as the negative control and baseline of activity. […]
Calls of active or inactive are those of the source. The calls were made as follows: active = hit-call score of the fitted dose curve at least 0.9, where 1 is the maximum; inactive = score below 0.9.
# output must be one of active, inactive

Example entries begin here.
CCn1cc(C(=O)O)c(=O)c2ccc(C)nc21
inactive
C=C(C)C(=O)OCCC(F)(F)C(F)(F)C(F)(F)C(F)(F)C(F)(F)C(F)(F)C(F)(F)C(F)(F)F
inactive

Prompt: Which result was noted for this compound in the test: O=C(c1ccc(OCCN2CCCCC2)cc1)c1c(-c2ccc(O)cc2)sc2cc(O)ccc12
Response: active

Prompt: Which result was noted for this compound in the test: CC1=CC(C)C(C=O)C(C)C1 (stereo not drawn) (tested in a mixture with another compound)
Response: inactive

Prompt: Which result was noted for this compound in the test: CCCO[Si](OCCC)(OCCC)OCCC
Response: inactive

Prompt: Which result was noted for this compound in the test: c1ccc(Sc2ccccc2)cc1
Response: inactive

Prompt: Which result was noted for this compound in the test: O=S1(=O)CC(Cl)(Cl)C(Cl)(Cl)C1
Response: active
